assay: Inhibition of Sulfurihydrogenibium yellowstonense YO3AOP1 carbonic anhydrase preincubated for 15 mins by CO2 hydration stopped-flow assay
measure-name: Ki (µM)
Just the number please, in µM, no unit attached.

Ki for CC(=O)Nc1nnc(S(N)(=O)=O)s1 [ACETAZOLAMIDE] ?
0.004

I [IODIDE] ?
860

Would you mind doing NS(=O)(=O)O [SULFAMATE] as well?
42

Now consider Br [BROMIDE] and answer again.
49000

Then what about the molecule N=C=S [ISOTHIOCYANATE] ?
710

// same read-out, input: Cl [HYDROCHLORIC ACID]
8300

Next record, please: CCN(CC)C(=S)S
4

Okay, and F [FLUORIDE ION] ?
417000

Please answer likewise for N=C=[Se] [ISOSELENOCYANATE]
70

Moving on to O=S(=O)(O)O
820

Entry to check: S [HYDROGEN SULFIDE]
580

Queued: O=C(O)O [BICARBONATE]
33200

Do the same for O=S(O)O please
21100

What do you get for S=C(S)S ?
60

----------
assay: Inhibition of Helicobacter pylori alpha-carbonic anhydrase preincubated for 15 mins by CO2 hydration stopped-flow assay
I'd appreciate it if you could supply pKi values for the items below.
Scale for pKi: -log10 of concentration given in mol/L; no unit attached.

// pKi lookup, key: S=C(S)S
3.42

What do we get for Cl [HYDROCHLORIC ACID] ?
2.57

Next: F [FLUORIDE ION]
2.39

Follow-up item: CCN(CC)C(=S)S
5.30

Moving on to O=S(O)O
3.00

Request: Br [BROMIDE]
2.62

Lookup N=C=[Se] [ISOSELENOCYANATE]
3.14

Record: I [IODIDE]
2.22

----------
test: Inhibition of Helicobacter pylori alpha-carbonic anhydrase preincubated for 15 mins by CO2 hydration stopped-flow assay
measure-name: Ki (µM)
Entry rule: numbers only, all in µM.

Please give the measured Ki for this compound: N=C=S [ISOTHIOCYANATE]
4100

How about O=S(=O)(O)O [SULFURIC ACID] ?
820

Could you do the same for NS(=O)(=O)O [SULFAMATE] , please?
80

----------
test: Inhibition of Sulfurihydrogenibium azorense carbonic anhydrase preincubated for 15 mins by CO2 hydration stopped-flow assay
measure-name: pKi
The scale used: pKi is minus the common logarithm of the concentration in molar units.

What value of pKi has been recorded for this entry: S [HYDROGEN SULFIDE]
3.42

Record: CCN(CC)C(=S)S [DITIOCARB]
5.51

// repeat for N=C=S [ISOTHIOCYANATE] and report
3.24

One more compound: O=S(O)O [SULFUROUS ACID]
3.02

Lookup N=C=[Se] [ISOSELENOCYANATE]
3.31

Then what about the compound I [IODIDE] ?
3.06

Repeat for the following compound: CC(=O)Nc1nnc(S(N)(=O)=O)s1 [ACETAZOLAMIDE]
9.05

What about O=C(O)O [BICARBONATE] ?
1.80

Can you check Cl [HYDROCHLORIC ACID] next?
3.07

O=S(=O)(O)O [SULFURIC ACID] , same question.
2.00

Record: F [FLUORIDE ION]
3.01

Repeat with NS(=O)(=O)O [SULFAMATE]
5.32

Next compound up: Br [BROMIDE]
3.03

And S=C(S)S [CARBONOTRITHIOIC ACID] ?
4.41
